System: P388/O (murine lymphoid neoplasm) cell line
assay-name: In vitro bioassay, cell growth by Alamar Blue
Type: cell-based
assay-setup: Mus musculus, 72 h; P388/O cells, three days, 37° C., in duplicate; SD ± 10%
Experimental: A series of in vitro assays were conducted to determine the IC50 for unmodified Ara-C and compound 10 using the P388/O (murine lymphoid neoplasm, Southern Research Institute) cell line. […] The assays were performed in duplicate in 96-well microtiter cell culture plates. […] After three days, cell growth was measured by addition of a metabolic indicator dye, Alamar Blue, according to the manufacturer's protocol. […]
metric-name: IC50 (nM)
Numbers only, in nM.

Q: I have this compound here, Nc1ccn([C@@H]2O[C@H](CO)[C@@H](O)[C@@H]2O)c(=O)n1 [Ara-C, cytosine arabinoside] , and I need its recorded IC50.
A: 10
